Source of measurements: PubChem BioAssay (NCI)

Each entry below carries its reported TGI.
Test system: SNB-19 CNS
Assay: NCI tumour cell line growth inhibition, 48 h

Examples from the recorded data:
COc1cc(/C=C/C=C2\CC/C(=C\C=C\c3ccc(O)c(OC)c3)C2=O)ccc1O :: > 100 µM
O=C1c2ccccc2NC(=S)[C@@H]2CCCN12 :: > 100 µM
O=[N+]([O-])c1ccc(Sc2c3ccccc3nc3cc(Cl)ccc23)cc1 :: > 100 µM

Indicate its recorded TGI; the molecule in question is CCOC(=O)c1nc2cc(C(F)(F)F)ccc2nc1Nc1ccc(C(=O)NC(C(=O)OCC)C(=O)OCC)cc1
55.3 µM

Indicate its recorded TGI; the molecule in question is Nc1ncnc2c1ncn2CC(O)CO (centres undefined)
> 100 µM

Indicate its recorded TGI; the molecule in question is COC(=O)C1(C)Cc2cc(OC(C)=O)c(OC(C)=O)cc2N1 (centres undefined)
> 100 µM

Indicate its recorded TGI; the molecule in question is C=C1C(=O)O[C@H]2[C@H]1CC/C(C=Nc1c(N)cc(C(F)(F)F)cc1Br)=C\CC[C@@]1(C)O[C@@H]21
13.2 µM

Indicate its recorded TGI; the molecule in question is CC(=O)OCC1OC(N2C(=O)C(=O)c3ccccc32)C(OC(C)=O)C(OC(C)=O)C1OC(C)=O (centres undefined)
> 100 µM

Indicate its recorded TGI; the molecule in question is COc1cc2c(c(O)c1OC)C(=O)C(Cc1ccc(O)cc1)CO2 (centres undefined)
74.1 µM

* * *

Tested on: MALME-3M melanoma
Experiment: NCI tumour cell line growth inhibition, 48 h
Each entry below carries its reported TGI.

Examples from the recorded data:
c1ccc2[nH]c(-c3ccc(Nc4nc(N5CCCCC5)nc(N5CCOCC5)n4)cc3)nc2c1 :: 3.57 µM
C\C(=N/N=C1/C(=C\N(C)C)C(=O)NC(=O)N1C)c1ccc(Cl)cc1 :: > 100 µM
CCC(C(=O)C(=O)OC)P1(=O)OC(C)(C)CN1C(C)(C)C (stereo unspecified) :: > 100 µM
Cc1c(C(=O)O)oc2ccc([N+](=O)[O-])cc12 :: > 100 µM
CC(C)(C)c1cc(C(=O)/C=C/c2ccc3c(c2)OCO3)cc(C(C)(C)C)c1O :: > 53.4 µM

# evaluate next
Indicate its recorded TGI; the molecule in question is CN(C)CCNC(=O)c1cccc2nc(-c3ccccc3)oc12
99 µM

* * *

System: SK-MEL-2 melanoma
Assay: NCI tumour cell line growth inhibition, 48 h
Each entry below carries its reported TGI.

O=C(N/N=C/c1ccccc1O)c1ccccc1 :: > 100 µM

Indicate its recorded TGI; the molecule in question is COc1ccc(N(C(=O)Nc2ccc(Cl)c(Cl)c2)C2c3cccn3C(=O)N2c2ccc(Cl)c(Cl)c2)cc1 (stereo not given)
> 100 µM

Indicate its recorded TGI; the molecule in question is O=C(O)c1ccc(C2C(=O)N[C@@H]3CCC[C@H]23)cc1 (stereo not given in full)
> 100 µM

Indicate its recorded TGI; the molecule in question is N#Cc1nc(NC(=O)c2ccccc2C(=O)O)c(C#N)[nH]1
> 100 µM

Indicate its recorded TGI; the molecule in question is c1ccc2[nH]c(-c3ccc(Nc4nc(N5CCCCC5)nc(N5CCOCC5)n4)cc3)nc2c1
5.36 µM

Indicate its recorded TGI; the molecule in question is O=C(O)c1ccccc1/C=N/N=C1c2ccccc2-c2ccccc21
> 100 µM

Indicate its recorded TGI; the molecule in question is CC(C)(C)C(=O)[CH-]C(=O)C(C)(C)C.CC(C)(C)C(=O)[CH-]C(=O)C(C)(C)C.CN(C)c1ccc([O-])cc1.CN(C)c1ccc([O-])cc1.[Ti+4]
> 100 µM

* * *

Test system: HOP-62 NSCLC
Assay: NCI tumour cell line growth inhibition, 48 h
Each entry below carries its reported TGI.

CC(C)(C)c1cc(C(=O)/C=C/c2ccc3c(c2)OCO3)cc(C(C)(C)C)c1O :: > 100 µM
C[N+](C)(C)CC1CCCCC1O (stereo not drawn) :: > 100 µM

Indicate its recorded TGI; the molecule in question is COC(=O)C1=Nc2c(C)nn(-c3ccccc3)c2N=C(c2ccccc2)C1
> 10 µM

* * *

System: A498 renal
Assay: NCI tumour cell line growth inhibition, 48 h
Each entry below carries its reported TGI.

Examples from the recorded data:
CC(=O)N1CCC2(c3ccccc3N(C(C)=O)C2c2ccc(O)cc2)C1C(=O)O (stereo unspecified) :: > 100 µM
CCOC(=O)/C(O)=C1\C(=O)N(C)C(=O)C1c1cccc(OC)c1 (stereo unspecified) :: > 100 µM
O=[N+]([O-])c1ccc2c(c1)C1=NN(c3ccccc3)C(c3ccccc3Br)C1CCC2 (stereo unspecified) :: > 50 µM
C\C(=N/N=C1/C(=C\N(C)C)C(=O)NC(=O)N1C)c1ccc(Cl)cc1 :: > 100 µM

Indicate its recorded TGI; the compound in question is O=C1OCC2=C1C(c1ccccc1)c1cc3c(cc1N2CCO)OCO3 (stereo unspecified)
> 50 µM

Indicate its recorded TGI; the compound in question is CC(=O)/C(=C/c1ccccc1F)C(=O)c1ccccc1
> 100 µM

Indicate its recorded TGI; the compound in question is O=C(Nc1ccc(Cl)c(Cl)c1)NS(=O)(=O)c1cnccc1Oc1ccc(F)cc1
> 100 µM

Indicate its recorded TGI; the compound in question is O=C1CSC2=NC3=C(COC/C3=C\c3ccc(Br)cc3)C(c3ccc(Br)cc3)N12 (stereo unspecified)
> 100 µM

Indicate its recorded TGI; the compound in question is Cn1c2ccccc2c(=O)c2c(O)cc3c(c21)C=CC1(CCCCC1)O3
> 10 µM

Indicate its recorded TGI; the compound in question is N#Cc1nc(C2CCC2)oc1N
> 100 µM

Indicate its recorded TGI; the compound in question is CCOC(=O)/C(C#N)=C\C=C(/Cl)c1ccc(Cl)cc1
> 79.3 µM

Indicate its recorded TGI; the compound in question is CC(C)CCC1(CCN)C(=O)NC(=O)NC1=O
> 100 µM

Indicate its recorded TGI; the compound in question is O=C(C(Cl)=C(N1CCOCC1)N1CCOCC1)C(Cl)Cl
> 100 µM

Indicate its recorded TGI; the compound in question is CCOC(=O)NC(=O)c1cn(CCN2CCN(C(=O)CCCCCCCCCCC(=O)N3CCN(CCn4cc(C(=O)NC(=O)OCC)c(=O)[nH]c4=O)CC3)CC2)c(=O)[nH]c1=O
> 100 µM

Indicate its recorded TGI; the compound in question is O=C(O)c1ccccc1/C=N/N=C1c2ccccc2-c2ccccc21
> 100 µM

Indicate its recorded TGI; the compound in question is CCC(=O)Nc1nc2c(ncn2C2OC(COC(=O)CC)C(OC(=O)CC)C2OC(=O)CC)c(=O)[nH]1 (stereo unspecified)
> 100 µM

Indicate its recorded TGI; the compound in question is CCCCn1c(-c2ccc(C(=O)O/N=C(\N)c3ccc4c(c3)OCO4)cc2)nc(-c2ccccc2)c1-c1ccccc1
2.82 µM

* * *

System: NCI/ADR-RES ovarian
Assay: NCI tumour cell line growth inhibition, 48 h
recorded-metric: TGI (µM)
The answer is to be given in µM; state only the numeric part.

CC(=O)c1ccc2c(c1)CC1(C2)Cc2ccccc2C1=O (stereo not given) :: 75.6

Indicate its recorded TGI; the molecule in question is CC(C)(C)c1cc(C(=O)/C=C/c2ccc3c(c2)OCO3)cc(C(C)(C)C)c1O
16.8

* * *

Each entry below carries its reported TGI.
Test system: PC-3 prostate
Test: NCI tumour cell line growth inhibition, 48 h
The answer is to be given in µM; state only the numeric part.

COc1cc2c(cc1OC)-c1cc3ccccc3c(=O)n1CC2 :: 40.6

# evaluate next
Indicate its recorded TGI; the molecule in question is C[C@H]1SC(c2ccc(Cl)cc2Cl)N(NC(=O)c2ccncc2)C1=O (stereo partly drawn)
29.7

* * *

Each entry below carries its reported TGI.
Test system: LOX IMVI melanoma
Experiment: NCI tumour cell line growth inhibition, 48 h

COc1cnc2c(c1)C(=O)c1c-2n(CCCN2CCN(C)CC2)c(=O)c2cc([N+](=O)[O-])ccc12 :: 0.396 µM
CC12CCCC3(CC(=O)C(C)(C)C3C(=O)C1)C2 (stereo not given) :: > 100 µM
O=C(/C=C/c1ccccc1)CC(=O)CCC(=O)Nc1ccc(Cl)cc1 :: > 100 µM
O=C(Nc1noc(-c2ccccc2)n1)c1ccccc1CNc1noc(-c2ccccc2)n1 :: > 100 µM

# evaluate next
Indicate its recorded TGI; the compound in question is c1ccc(N2N=C(c3ccco3)CC2c2ccco2)cc1 (stereo not given)
> 100 µM

* * *

Test system: SW-620 colon
Assay: NCI tumour cell line growth inhibition, 48 h
Each entry below carries its reported TGI.

Examples from the recorded data:
Cc1c(C(=O)O)oc2ccc([N+](=O)[O-])cc12 :: > 100 µM
CN(C)C(=S)/N=c1\ssc(=S)n1Cc1ccncc1 :: 48.8 µM
CC12CCCC3(CC(=O)C(C)(C)C3C(=O)C1)C2 (stereo not given) :: > 100 µM

Indicate its recorded TGI; the compound in question is CC(C)CCC1(CCN)C(=O)NC(=O)NC1=O
> 100 µM

Indicate its recorded TGI; the compound in question is C=C1c2nc3ccccc3n2C=C(c2ccc(Cl)cc2)N1c1ccc(OC)cc1
> 100 µM

Indicate its recorded TGI; the compound in question is CCOC(=O)C#Cc1ccccc1
31.2 µM

Indicate its recorded TGI; the compound in question is Cc1cnc2c(c1)C(=O)C1=C(C2=O)C2OC(=O)CC2OC1(C)C (stereo not given)
0.768 µM

Indicate its recorded TGI; the compound in question is c1c[nH]c(CN2CCOCC2)n1
> 100 µM

Indicate its recorded TGI; the compound in question is COC(=O)C1=Nc2c(C)nn(-c3ccccc3)c2N=C(c2ccccc2)C1
> 10 µM

Indicate its recorded TGI; the compound in question is C/C(=N\NC(=O)CC#N)c1c(O)cc(C)oc1=O
> 100 µM
